Reference source: paper PMC5389348

ASSAY_NAME: Pharmacokinetic analysis, plasma and brain
Assay type: in vivo
MEASUREMENT_SETUP: male, BALB/c, mouse, plasma and brain, subcutaneous; 10 mg/kg; elimination; read-out: half-life (converted)
MEASURED_QUANTITY: half-life

# get_value(readout='half-life', item= OC(CN1CCOCC1)Cn1ccc(-c2ccc(OC(F)F)c(OC3CCCC3)c2)n1 (stereo not shown) [GEBR-32a] ) ~60 min

###

ASSAY_NAME: Pharmacokinetic analysis, plasma and brain
Type: in vivo
MEASUREMENT_SETUP: male, mouse, sc; plasma; 10 mg/kg s.c., BALB/c mice
MEASURED_QUANTITY: AUC(0-t) (ng·h/mL)
Give just the numeric value; ng·h/mL need not be written.

# get_value(readout='AUC(0-t)', item= OC(CN1CCOCC1)Cn1ccc(-c2ccc(OC(F)F)c(OC3CCCC3)c2)n1 (stereo not shown) [GEBR-32a] ) 861
